These measurements were taken from paper PMC7832312.

- experiment description: Solubility measurement (UV, oversaturated solution stirred 24 h at 37 °C)
- Type: physicochemical
- details: gastrointestinal tract medium pH 1.2, simulated gastric fluid, thermodynamic from solid, gastrointestinal tract at pH 1.2, 37 °C, average of three replicates
readout: solubility at 24 h (µg/mL)
Answers are plain numbers, in µg/mL.

[Q] Endpoint output: solubility at 24 h of O=c1c(-c2ccc(O)cc2)coc2c([C@@H]3O[C@H](CO)[C@@H](O)[C@H](O)[C@H]3O)c(O)ccc12 . Value?
[A] 1510
